Sourced from patent EP0560267B1

# system under test: HSV-1 ribonucleotide reductase (Human herpesvirus 1, UniProt P08543)
# Construct: HSV-1 ribonucleotide reductase (partially purified) was obtained from quiescent BHK-21/C13 cells infected with strain F HSV-1 virus; made in house; host or cells: quiescent BHK-21/C13 cells infected with HSV-1 strain F (virus-encoded enzyme, partially purified)
# Sequence (P08543 whole entry): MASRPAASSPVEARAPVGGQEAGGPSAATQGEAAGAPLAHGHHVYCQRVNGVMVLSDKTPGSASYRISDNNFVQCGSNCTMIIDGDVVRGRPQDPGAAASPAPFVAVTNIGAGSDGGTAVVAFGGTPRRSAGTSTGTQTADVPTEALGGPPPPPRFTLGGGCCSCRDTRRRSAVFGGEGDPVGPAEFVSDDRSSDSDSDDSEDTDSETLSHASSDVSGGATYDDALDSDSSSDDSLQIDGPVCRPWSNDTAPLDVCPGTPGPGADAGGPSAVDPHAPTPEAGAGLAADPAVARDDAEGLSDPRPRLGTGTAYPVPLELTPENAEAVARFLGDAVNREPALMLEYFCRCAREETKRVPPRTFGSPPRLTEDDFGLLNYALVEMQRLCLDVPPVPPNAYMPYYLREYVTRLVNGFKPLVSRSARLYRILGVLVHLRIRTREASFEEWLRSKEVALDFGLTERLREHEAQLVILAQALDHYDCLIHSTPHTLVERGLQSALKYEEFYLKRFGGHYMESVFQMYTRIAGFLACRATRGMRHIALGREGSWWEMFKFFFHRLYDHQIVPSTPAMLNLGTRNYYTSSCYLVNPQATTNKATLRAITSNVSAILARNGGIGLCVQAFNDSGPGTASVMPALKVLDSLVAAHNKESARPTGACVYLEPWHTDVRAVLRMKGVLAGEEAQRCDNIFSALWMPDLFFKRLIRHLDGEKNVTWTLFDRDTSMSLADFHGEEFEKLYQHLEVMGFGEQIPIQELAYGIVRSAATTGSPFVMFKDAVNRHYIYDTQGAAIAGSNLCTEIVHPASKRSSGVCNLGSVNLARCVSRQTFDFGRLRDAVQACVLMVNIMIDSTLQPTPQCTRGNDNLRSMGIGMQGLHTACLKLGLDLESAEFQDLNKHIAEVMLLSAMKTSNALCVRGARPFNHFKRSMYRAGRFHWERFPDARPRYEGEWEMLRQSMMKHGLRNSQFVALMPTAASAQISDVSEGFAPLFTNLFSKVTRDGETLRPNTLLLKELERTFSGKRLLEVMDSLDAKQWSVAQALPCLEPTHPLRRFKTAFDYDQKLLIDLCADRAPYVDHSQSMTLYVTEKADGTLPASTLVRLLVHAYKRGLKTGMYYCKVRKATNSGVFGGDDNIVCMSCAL
# method summary: Inhibition of Herpes Simplex Virus (HSV-1) ribonucleotide reductase
# Format: biochemical
# recorded conditions: Table IV; assay of example 10
IC50 strictly under 400 nM means yes (1); at 400 nM or over means no (0).

Please determine if CCCC(CCC)NC(=O)NC(C(=O)CC(CC(=O)C(C)(C)C)C(=O)NC(C(=O)NCC(CC)(CC)CC)C1(C(=O)O)CCCC1)C(C)(C)C (centres unmarked) is below 400 nM in terms of IC50.
no (0)

Please determine if CCCC(CCC)NC(=O)NC(C(=O)CC(CC(=O)C(C)(C)C)C(=O)NC(C(=O)NCC(C)(C)CC)C1(C(=O)O)CCCC1)C(C)(C)C (centres unmarked) is below 400 nM in terms of IC50.
yes (1)

Please determine if CCCC(CCC)NC(=O)NC(C(=O)CC(CC(=O)C(C)(C)C)C(=O)NC(C(=O)NC(CC)C(C)(C)C)C1(C(=O)O)CCCC1)C(C)(C)C [Pr2CHNHC(O) / NH-(R)-CH(Et)CMe3] is below 400 nM in terms of IC50.
yes (1)

Please determine if CCCCC(CC)NC(=O)NC(C(=O)CC(CC(=O)C(C)(C)C)C(=O)NC(C(=O)NCC(C)(C)C)C1(C(=O)O)CCCC1)C(C)(C)C [(R,S)-EtBuCH-NHC(O) / NHCH2CMe3] is below 400 nM in terms of IC50.
yes (1)

Please determine if CCCC(CC)NC(=O)NC(C(=O)CC(CC(=O)C(C)(C)C)C(=O)NC(C(=O)NCC(C)(C)C)C1(C(=O)O)CCCC1)C(C)(C)C [(R,S)-EtPrCH-NHC(O) / NHCH2CMe3] is below 400 nM in terms of IC50.
yes (1)

Please determine if CCCC(CCC)NC(=O)NC(C(=O)CC(CC(=O)C(C)(C)C)C(=O)NC(C(=O)NCC(C)CC)C1(C(=O)O)CCCC1)C(C)(C)C [Pr2CHNHC(O) / NHCH2-(R,S)-CH(Me)Et] is below 400 nM in terms of IC50.
yes (1)

Please determine if CCCC(CCC)NC(=O)NC(C(=O)CC(CC(=O)C(C)(C)C)C(=O)NC(C(=O)NN(CC)C(C)(C)C)C1(C(=O)O)CCCC1)C(C)(C)C (centres unmarked) [Pr2CHNHC(O) / NHN(Et)CMe3] is below 400 nM in terms of IC50.
yes (1)

Please determine if CCCC(CCC)NC(=O)NC(C(=O)CC(CC(=O)C(C)(C)C)C(=O)NC(C(=O)NC(CCC)C(C)(C)C)C1(C(=O)O)CCCC1)C(C)(C)C [Pr2CHNHC(O) / NH-(R)-CH(Pr)CMe3] is below 400 nM in terms of IC50.
no (0)

Please determine if CCCC(CCC)NC(=O)NC(C(=O)CC(CC(=O)C(C)(C)C)C(=O)NC(C(=O)NCC(C)(CC)CC)C1(C(=O)O)CCCC1)C(C)(C)C (centres unmarked) is below 400 nM in terms of IC50.
yes (1)

Please determine if CCCC(CC)(CCC)NC(=O)NC(C(=O)CC(CC(=O)C(C)(C)C)C(=O)NC(C(=O)NC(CC)C(C)(C)C)C1(C(=O)O)CCCC1)C(C)(C)C [EtPr2CNHC(O) / NH-(R)-CH(Et)CMe3] is below 400 nM in terms of IC50.
yes (1)

====

# system under test: HSV-1 ribonucleotide reductase (Human herpesvirus 1)
# Construct: HSV-1 ribonucleotide reductase (partially purified) was obtained from quiescent BHK-21/C13 cells infected with strain F HSV-1 virus; made in house; host or cells: quiescent BHK-21/C13 cells infected with HSV-1 strain F (virus-encoded enzyme, partially purified)
# method summary: Inhibition of Herpes Simplex Virus (HSV-1) ribonucleotide reductase
# Format: biochemical
# recorded conditions: Table V; assay of example 10
endpoint: IC50 (nM)
# value in nM; strip the unit string

Output measured IC50 for this item: CCCC(CCC)NC(=O)NC(C(=O)CC(CC(=O)C(C)C)C(=O)NC(C(=O)NCC(C)(C)C)C1(C(=O)O)CCCC1)C(C)(C)C (stereo not drawn)
360

Output measured IC50 for this item: CCCC(CCC)NC(=O)NC(C(=O)CC(CC(=O)C(C)(C)C)C(=O)NC(C(=O)NC(C)C(C)(C)C)C1(C(=O)O)CCCC1)C(C)C (stereo not drawn)
220

Output measured IC50 for this item: CCCC(CCC)NC(=O)NC(C(=O)CC(CC(=O)C(C)(C)C)C(=O)NC(C(=O)NC(C)C(C)(C)C)C1(C(=O)O)CCCC1)C(C)(C)CC (stereo not drawn)
250

Output measured IC50 for this item: CCCC(CCC)NC(=O)NC(C(=O)CC(CC(=O)C1(C)CCCC1)C(=O)NC(C(=O)NCC(C)(C)C)C1(C(=O)O)CCCC1)C(C)(C)C (stereo not drawn)
240

Output measured IC50 for this item: CCCC(CCC)NC(=O)NC(C(=O)CC(CC(=O)C(C)(C)CC)C(=O)NC(C(=O)NCC(C)(C)C)C1(C(=O)O)CCCC1)C(C)(C)C (stereo not drawn)
210

Output measured IC50 for this item: CCCC(CCC)NC(=O)NC(C(=O)CC(CC(=O)C1CCCCC1)C(=O)NC(C(=O)NCC(C)(C)C)C1(C(=O)O)CCCC1)C(C)(C)C (stereo not drawn)
370

Output measured IC50 for this item: C=CCC(C(=O)O)C(NC(=O)C(CC(=O)C(NC(=O)NC(CCC)CCC)C(C)(C)C)CC(=O)C(C)(C)C)C(=O)NCC(C)(C)C (stereo not drawn)
300

Output measured IC50 for this item: CCCC(CCC)NC(=O)NC(C(=O)CC(CC(=O)C(C)(C)C)C(=O)NC(C(=O)NCC(C)(C)C)C(CCC)C(=O)O)C(C)(C)C (stereo not drawn)
250

Output measured IC50 for this item: CCCC(CCC)NC(=O)NC(C(=O)CC(CC(=O)C1CCC1)C(=O)NC(C(=O)NCC(C)(C)C)C1(C(=O)O)CCCC1)C(C)(C)C (stereo not drawn)
310

====

# system under test: HSV-1 ribonucleotide reductase (Human herpesvirus 1, UniProt P08543)
# Construct: HSV-1 ribonucleotide reductase (partially purified) was obtained from quiescent BHK-21/C13 cells infected with strain F HSV-1 virus; made in house; host or cells: quiescent BHK-21/C13 cells infected with HSV-1 strain F (virus-encoded enzyme, partially purified)
# method summary: Inhibition of Herpes Simplex Virus (HSV-1) ribonucleotide reductase
# Type: biochemical
# recorded conditions: Table IV; assay of example 10
IC50 strictly under 300 nM means label 1; at 300 nM or over means label 0.

Please determine if CCCC(CCC)NC(=O)NC(C(=O)CC(CC(=O)C(C)(C)C)C(=O)NC(C(=O)NN(C)C(C)(C)C)C1(C(=O)O)CCCC1)C(C)(C)C (centres unmarked) [Pr2CHNHC(O) / NH-N(Me)CMe3] is below 300 nM in terms of IC50.
label 1

Please determine if CCCC(CCC)NC(=O)NC(C(=O)CC(CC(=O)C(C)(C)C)C(=O)NC(C(=O)NC(C)C(C)(C)C)C1(C(=O)O)CCCC1)C(C)(C)C [Pr2CHNHC(O) / NH-(R)-CH(Me)CMe3] is below 300 nM in terms of IC50.
label 1

Please determine if CCCC(CCC)NC(=O)NC(C(=O)CC(CC(=O)C(C)(C)C)C(=O)NC(C(=O)NC1CCCCC1(C)C)C1(C(=O)O)CCCC1)C(C)(C)C (centres unmarked) is below 300 nM in terms of IC50.
label 0

Please determine if C=CCC(CC=C)NC(=O)NC(C(=O)CC(CC(=O)C(C)(C)C)C(=O)NC(C(=O)NCC(C)(C)C)C1(C(=O)O)CCCC1)C(C)(C)C (centres unmarked) [(CH2=CHCH2)2-CHNHC(O) / NHCH2CMe3] is below 300 nM in terms of IC50.
label 0

Please determine if CCCC(CCC)NC(=O)NC(C(=O)CC(CC(=O)C(C)(C)C)C(=O)NC(C(=O)NNC(C)(C)C)C1(C(=O)O)CCCC1)C(C)(C)C (centres unmarked) [Pr2CHNHC(O) / NHNHCMe3] is below 300 nM in terms of IC50.
label 1

====

# System: HSV-2
# method summary: Inhibition of Herpes Simplex Virus (HSV-2) replication in cell culture
# Format: cell-based
# recorded conditions: Table IV; cell culture assay of example 11; read-out: EC50
endpoint: EC50 (µM)
# value in µM; strip the unit string

Output measured EC50 for this item: CCCC(CCC)NC(=O)NC(C(=O)CC(CC(=O)C(C)(C)C)C(=O)NC(C(=O)NC1CCCCC1C)C1(C(=O)O)CCCC1)C(C)(C)C (stereo not drawn) [Pr2CHNHC(O) / trans-NH-(2-methyl-cyclohexyl)]
60
